# testedOn: EGFR wild type (EGFR WT) (Homo sapiens (Human), UniProt P00533)
# Sequence (P00533 25-1210): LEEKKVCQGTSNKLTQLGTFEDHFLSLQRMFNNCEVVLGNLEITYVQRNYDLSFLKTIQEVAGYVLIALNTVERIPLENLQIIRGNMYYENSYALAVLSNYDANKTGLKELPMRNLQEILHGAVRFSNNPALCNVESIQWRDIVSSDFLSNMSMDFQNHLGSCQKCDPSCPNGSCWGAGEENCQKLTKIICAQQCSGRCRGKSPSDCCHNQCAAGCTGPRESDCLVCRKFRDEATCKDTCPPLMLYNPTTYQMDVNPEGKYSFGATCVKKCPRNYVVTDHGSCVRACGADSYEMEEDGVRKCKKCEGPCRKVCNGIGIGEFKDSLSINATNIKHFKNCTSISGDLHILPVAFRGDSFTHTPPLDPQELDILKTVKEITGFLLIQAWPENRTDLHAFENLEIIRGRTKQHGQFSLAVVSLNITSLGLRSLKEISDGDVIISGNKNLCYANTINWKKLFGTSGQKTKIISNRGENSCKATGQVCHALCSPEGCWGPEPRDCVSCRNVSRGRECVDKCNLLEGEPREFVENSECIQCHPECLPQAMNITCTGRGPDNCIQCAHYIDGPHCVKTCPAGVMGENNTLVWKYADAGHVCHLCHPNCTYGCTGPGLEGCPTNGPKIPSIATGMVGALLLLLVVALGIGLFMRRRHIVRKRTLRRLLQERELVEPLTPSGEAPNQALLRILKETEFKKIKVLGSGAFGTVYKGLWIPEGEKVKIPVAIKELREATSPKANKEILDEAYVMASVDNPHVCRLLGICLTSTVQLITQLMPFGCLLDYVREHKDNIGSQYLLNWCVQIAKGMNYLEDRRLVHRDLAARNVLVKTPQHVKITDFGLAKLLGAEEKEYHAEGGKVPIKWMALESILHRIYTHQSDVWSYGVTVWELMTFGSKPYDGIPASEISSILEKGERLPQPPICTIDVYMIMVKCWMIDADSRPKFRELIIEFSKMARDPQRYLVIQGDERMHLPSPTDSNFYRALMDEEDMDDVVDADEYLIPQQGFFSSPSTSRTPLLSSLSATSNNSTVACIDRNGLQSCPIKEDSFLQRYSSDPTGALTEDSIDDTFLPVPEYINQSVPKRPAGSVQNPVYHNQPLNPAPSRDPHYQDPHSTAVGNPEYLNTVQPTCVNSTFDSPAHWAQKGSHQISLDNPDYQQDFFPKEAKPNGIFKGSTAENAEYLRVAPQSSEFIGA
# procedureSummary: Cellular Phosphorylation Assay, Assay 5 (EGF-stimulated EGFR phosphorylation, NIH 3T3 cells)
# Type: cell-based
# measurementParameters: cellular EGFR WT phosphorylation, EGF-stimulated
pIC50: −log10 of the molar value.
quantity: pIC50

| compound | pIC50 |
| --- | --- |
| C=CC(=O)N1CCN(c2ccc3ncnc(Nc4cc(C)c(Oc5cnc6c(c5)ncn6C)cc4F)c3n2)CC1(C)C | ≤ 5.30 |

// pIC50 value for `C=CC(=O)N1CCN(c2ccc3ncnc(Nc4cnc(Oc5ccn6ncnc6c5)c(C)c4)c3n2)CC1(C)C` : ≤ 5.30

// pIC50 value for `C=CC(=O)N1[C@H]2CC[C@@H]1[C@H](c1ccc3ncnc(Nc4ccc(Oc5ccn6ncnc6c5)c(C)c4F)c3n1)CC2` : 6.35

// pIC50 value for `C=CC(=O)N1C2CC1CN(c1ccc3ncnc(Nc4cc(C)c(Oc5cnc6c(c5)ncn6C)cc4F)c3n1)C2` : ≤ 5.30

// pIC50 value for `C=CC(=O)N1CC2CCC(C1)N2c1ccc2ncnc(Nc3ccc(Oc4ccn5ncnc5c4)c(Cl)c3F)c2n1` : 7.22

// pIC50 value for `C=CC(=O)N(C)[C@@H]1CCN(c2ccc3ncnc(Nc4cc(C)c(Oc5ccn6ncnc6c5)cc4F)c3n2)C1` : ≤ 5.30

// pIC50 value for C=CC(=O)N1CCCC(c2ccc3ncnc(Nc4ccc(Oc5cnc6c(c5)ncn6C)c(C)c4)c3n2)CC1 (stereo not shown) : ≤ 5.30

====

Recorded pIC50 by entry
# testedOn: EGFR (Homo sapiens (Human))
# Sequence (P00533 25-1210): as above
# procedureSummary: ErbB Enzyme Assay (HTRF KinEASE-TK), Assay 3
# Format: biochemical
# measurementParameters: EGFR enzyme
Just the number, please; pIC50 means minus log10 of the concentration in mol/L.

| compound | pIC50 |
| --- | --- |
| C=CC(=O)N1[C@@H]2CC[C@H]1[C@H](c1ccc3ncnc(Nc4ccc(Oc5ccn6ncnc6c5)c(C)c4F)c3n1)C2 (racemic) [Example 213] | 6.58 |
| C=CC(=O)N1C[C@@H]2C[C@H]1CN2c1ccc2ncnc(Nc3cc(Cl)c(Oc4ccn5ncnc5c4)cc3F)c2n1 | 6.66 |

// pIC50 value for `C=CC(=O)N1C2CC1CN(c1ccc3ncnc(Nc4ccc(Oc5ccn6ncnc6c5)c(C)c4F)c3n1)C2` : 5.43

// pIC50 value for `C=CC(=O)N1C[C@H]2C[C@@H]1CN2c1ccc2ncnc(Nc3ccc(Oc4ccc5c(c4)ncn5C)c(C)c3F)c2n1` : 5.25

// pIC50 value for `C=CC(=O)N1CCCN(c2nc3c(Nc4ccc(Oc5ccn6ncnc6c5)c(Cl)c4F)ncnc3cc2OC)CC1` : 6.58

====

Recorded IC50 by entry
# testedOn: UniProt P04626
# procedureSummary: ErbB Enzyme Assay (HTRF KinEASE-TK), Assay 2
# Format: biochemical
# measurementParameters: ErbB2 WT enzyme assay

Would you please look over these solved cases?
| compound | IC50 |
| --- | --- |
| C=CC(=O)N1CCN(c2ccc3ncnc(Nc4ccc(Oc5cc(F)c6c(c5)ncn6C)c(C)c4)c3n2)CC1 | 0.01 µM |
| C=CC(=O)N1C[C@H]2C[C@@H]1[C@H](c1ccc3ncnc(Nc4cc(C)c(Oc5ccc6c(c5)ncn6C)cc4F)c3n1)C2 | 0.0165 µM |
| C=CC(=O)N1C[C@H]2C[C@@H]1[C@H](c1ccc3ncnc(Nc4cc(C)c(Oc5cnc6c(c5)ncn6C)cc4F)c3n1)C2 | 0.0795 µM |
| C=CC(=O)N1CCN(c2ccc3ncnc(Nc4ccc(Oc5ccn6ncnc6c5)c(C)c4F)c3n2)C[C@H]1C1CC1 | 0.0282 µM |
| C=CC(=O)N1CCN(c2ccc3ncnc(Nc4ccc(Oc5cc(F)c6c(c5)ncn6C)c(C)c4)c3n2)CC12CC2 | 0.0104 µM |
| C=CC(=O)N1C[C@@H]2C[C@H](c3ccc4ncnc(Nc5ccc(Oc6ccc7c(c6)ncn7C)c(C)c5F)c4n3)C[C@H]1C2 | 0.0204 µM |
| C=CC(=O)N1C[C@H](c2ccc3ncnc(Nc4ccc(Oc5ccn6ncnc6c5)c(C)c4F)c3n2)C[C@@H]1C1CC1 (racemic) | 0.0082 µM |
| C=CC(=O)N1CCN(c2ccc3ncnc(Nc4ccc(Oc5ccn6ncnc6c5)c(Cl)c4F)c3n2)C[C@H]1C(C)C | 0.0149 µM |
| C=CC(=O)N1CC2CCC(C1)N2c1ccc2ncnc(Nc3ccc(Oc4ccn5ncnc5c4)c(Cl)c3F)c2n1 | 0.0047 µM |
| C=CC(=O)N1[C@@H]2CCC[C@H]1[C@@H](c1ccc3ncnc(Nc4ccc(Oc5ccn6ncnc6c5)c(C)c4F)c3n1)C2 | 0.0098 µM |

Form field IC50 for item `C=C(C)C(=O)N1CCN(c2ccc3ncnc(Nc4ccc(Oc5ccn6ncnc6c5)c(C)c4F)c3n2)CC1(C)C` on UniProt P04626: 0.113 µM

Form field IC50 for item C=CC(=O)N1CCN(c2ccc3ncnc(Nc4ccc(Oc5ccn6ncnc6c5)c(C)c4F)c3n2)C[C@@H]1C(F)F (racemic) on UniProt P04626: 0.0114 µM

Form field IC50 for item C=CC(=O)N1C[C@@H](c2ccc3ncnc(Nc4cc(C)c(Oc5ccn6ncnc6c5)cc4F)c3n2)C[C@@H]1C (mixture of isomers) on UniProt P04626: 0.101 µM

Form field IC50 for item `C=CC(=O)N(C)[C@@H]1CCN(c2ccc3ncnc(Nc4cc(C)c(Oc5ccn6ncnc6c5)cc4F)c3n2)C1` on UniProt P04626: 0.0694 µM

====

# testedOn: ErbB2 WT (Homo sapiens (Human), UniProt P04626)
# Sequence (P04626 23-1255): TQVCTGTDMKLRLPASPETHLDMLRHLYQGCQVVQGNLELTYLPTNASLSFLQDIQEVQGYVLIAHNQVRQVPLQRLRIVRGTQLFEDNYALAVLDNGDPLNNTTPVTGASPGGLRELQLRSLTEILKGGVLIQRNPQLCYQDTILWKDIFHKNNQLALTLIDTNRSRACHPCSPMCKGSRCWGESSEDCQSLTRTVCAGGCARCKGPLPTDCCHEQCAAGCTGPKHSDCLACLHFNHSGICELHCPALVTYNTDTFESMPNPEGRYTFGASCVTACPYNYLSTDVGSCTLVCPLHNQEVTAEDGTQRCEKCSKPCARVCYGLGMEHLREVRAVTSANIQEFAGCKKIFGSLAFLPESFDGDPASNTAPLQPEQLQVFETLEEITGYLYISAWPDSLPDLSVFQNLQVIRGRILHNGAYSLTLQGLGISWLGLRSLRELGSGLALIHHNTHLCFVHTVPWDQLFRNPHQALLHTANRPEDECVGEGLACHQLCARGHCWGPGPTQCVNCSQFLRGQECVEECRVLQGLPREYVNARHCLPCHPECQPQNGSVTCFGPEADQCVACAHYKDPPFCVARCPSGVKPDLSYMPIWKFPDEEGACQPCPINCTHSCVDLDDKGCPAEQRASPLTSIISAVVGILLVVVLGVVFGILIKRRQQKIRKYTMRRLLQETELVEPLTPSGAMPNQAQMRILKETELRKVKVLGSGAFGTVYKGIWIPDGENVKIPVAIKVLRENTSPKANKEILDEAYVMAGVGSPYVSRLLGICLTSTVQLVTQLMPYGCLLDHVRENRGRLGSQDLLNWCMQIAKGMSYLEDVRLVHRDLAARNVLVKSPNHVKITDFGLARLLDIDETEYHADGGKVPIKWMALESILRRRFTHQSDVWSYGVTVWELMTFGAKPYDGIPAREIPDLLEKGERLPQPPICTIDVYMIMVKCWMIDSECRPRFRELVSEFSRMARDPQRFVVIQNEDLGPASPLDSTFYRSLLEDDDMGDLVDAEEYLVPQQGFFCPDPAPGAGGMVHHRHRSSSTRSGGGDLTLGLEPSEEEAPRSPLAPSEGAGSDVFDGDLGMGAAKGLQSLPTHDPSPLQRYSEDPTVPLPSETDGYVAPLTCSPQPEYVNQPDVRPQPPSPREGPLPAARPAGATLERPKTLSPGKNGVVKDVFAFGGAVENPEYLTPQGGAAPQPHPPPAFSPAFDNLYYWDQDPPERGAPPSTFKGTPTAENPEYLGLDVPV
# procedureSummary: ErbB Enzyme Assay (HTRF KinEASE-TK), Assay 2
# Assay type: biochemical
# measurementParameters: ErbB2 WT enzyme
# Description: The kinases were incubated with 250 nM TK-substrate biotin (CisBio, part of cat #62TKOPEC) at 1 mM ATP along with test compounds in a buffer consisting of 25 mM HEPES, pH 7.4, 10 mM MgCl2, 0.01% Triton X-100, and 2% DMSO in a volume of 8 μL. […] After 30-minute incubation at 22° C., the reaction was quenched by adding 8 μL of quench solution containing 62.5 nM Sa-XL665 and 0.25×TK-Ab-Cryptate in HTRF detection buffer (all from CisBio, part of cat #62TKOPEC).
Recorded log10 IC50 by entry
// units: nM (pre-log); metric: IC50; scale: log10

| compound | log10 IC50 |
| --- | --- |
| C=CC(=O)N1CC[C@H]2CN(c3ccc4ncnc(Nc5cc(C)c(Oc6ccn7ncnc7c6)cc5F)c4n3)C[C@H]21 | 2.08 |
| C=CC(=O)N1CCN(c2ccc3ncnc(Nc4ccc(Oc5ccn6ncnc6c5)c(Cl)c4F)c3n2)CC1 | 0.78 |

// log10 IC50 value for C=CC(=O)N1[C@@H]2CC[C@H]1[C@H](c1ccc3ncnc(Nc4ccc(Oc5ccn6ncnc6c5)c(C)c4)c3n1)C2 (racemic) [Example 220] : 1.25

// log10 IC50 value for `C=CC(=O)N1CCC(Oc2nc3c(Nc4ccc(Oc5ccn6ncnc6c5)c(Cl)c4F)ncnc3cc2OC)CC1` : 0.74

// log10 IC50 value for C=CC(=O)N1CCC(c2ccc3ncnc(Nc4ccc(Oc5ccc6c(c5)ncn6C)c(C)c4F)c3n2)CC1(C)C (stereo not shown) : 2.43

// log10 IC50 value for `C=CC(=O)N1[C@H](C)CN(c2ccc3ncnc(Nc4cc(C)c(Oc5ccc6c(c5)ncn6C)cc4F)c3n2)C[C@@H]1C` : 1.76

// log10 IC50 value for `C=CC(=O)N1CCCN(c2ccc3ncnc(Nc4ccc(Oc5ccn6ncnc6c5)c(C)c4F)c3n2)CC1` : 2.12

====

Recorded efflux ratio at 2 h, 1 µM by entry
# testedOn: BCRP (Homo sapiens (Human), UniProt Q9UNQ0)
# Sequence (Q9UNQ0 whole entry): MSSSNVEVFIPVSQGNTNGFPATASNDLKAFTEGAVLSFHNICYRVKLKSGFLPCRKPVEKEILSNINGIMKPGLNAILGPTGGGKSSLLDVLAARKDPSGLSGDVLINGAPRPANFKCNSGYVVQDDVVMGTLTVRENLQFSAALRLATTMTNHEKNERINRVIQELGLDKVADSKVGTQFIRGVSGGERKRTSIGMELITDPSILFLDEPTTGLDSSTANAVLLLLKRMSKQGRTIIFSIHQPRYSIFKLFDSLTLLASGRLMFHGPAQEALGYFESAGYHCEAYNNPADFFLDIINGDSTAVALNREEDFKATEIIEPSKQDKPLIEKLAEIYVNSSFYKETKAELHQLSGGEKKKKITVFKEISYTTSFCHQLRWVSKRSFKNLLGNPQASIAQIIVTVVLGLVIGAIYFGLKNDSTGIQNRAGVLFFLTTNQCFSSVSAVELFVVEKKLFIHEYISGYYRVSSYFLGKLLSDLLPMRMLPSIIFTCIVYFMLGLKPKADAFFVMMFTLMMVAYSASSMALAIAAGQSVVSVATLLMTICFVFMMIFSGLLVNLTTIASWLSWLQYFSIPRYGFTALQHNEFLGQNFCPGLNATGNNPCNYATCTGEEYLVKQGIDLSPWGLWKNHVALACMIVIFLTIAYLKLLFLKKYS
# procedureSummary: BCRP MDCKII efflux assay (Assay 7)
# Type: in vitro ADME
# measurementParameters: dog; efflux ratio Papp(B-A)/Papp(A-B), BCRP MDCKII cells; read-out: Assay 7 Pe Ratio
Lab note: jot the number down without any unit.

| compound | reported |
| --- | --- |
| C=CC(=O)N1CC2CC(C1)N2c1ccc2ncnc(Nc3ccc(Oc4ccn5ncnc5c4)c(C)c3F)c2n1 [Example 46] | 2.5 |

Now take the following compound into account.
Form field efflux ratio at 2 h, 1 µM for item C=CC(=O)N1C[C@H]2C[C@@H]1CN(c1ccc3ncnc(Nc4ccc(Oc5ccc6c(c5)ncn6C)c(C)c4F)c3n1)C2 [Example 118] on BCRP (Homo sapiens (Human), UniProt Q9UNQ0): 4.1

====

# testedOn: ErbB2 WT (Homo sapiens (Human), UniProt P04626)
# procedureSummary: ErbB Enzyme Assay (HTRF KinEASE-TK), Assay 2
# Format: biochemical
# measurementParameters: ErbB2 WT enzyme
Recorded pIC50 by entry
Just the number, please; pIC50 means minus log10 of the concentration in mol/L.

Would you please look over these solved cases?
| molecule | testedOn | reported |
| --- | --- | --- |
| C=CC(=O)N1CCC[C@@H](c2ccc3ncnc(Nc4ccc(Oc5ccc6c(c5)ncn6C)c(C)c4F)c3n2)C1 (racemic) | ErbB2 WT (Homo sapiens (Human), UniProt P04626) | 7.60 |
| C=CC(=O)N1C[C@@H](c2ccc3ncnc(Nc4cc(C)c(Oc5ccc6c(c5)ncn6C)cc4F)c3n2)CC[C@H]1C | ErbB2 WT (Homo sapiens (Human), UniProt P04626) | 6.58 |
| C=CC(=O)N1CCC(N(C)c2ccc3ncnc(Nc4ccc(Oc5ccn6ncnc6c5)c(C)c4F)c3n2)CC1 | ErbB2 WT (Homo sapiens (Human), UniProt P04626) | 7.34 |
| C=CC(=O)N1C2CC1CN(c1ccc3ncnc(Nc4cc(C)c(Oc5ccn6ncnc6c5)cc4F)c3n1)C2 | ErbB2 WT (Homo sapiens (Human), UniProt P04626) | 6.92 |

// pIC50 value for `C=CC(=O)N1CCC(Oc2ccc3ncnc(Nc4ccc(Oc5ccn6ncnc6c5)c(C)c4)c3n2)CC1` : 7.47

// pIC50 value for `C=CC(=O)Nc1ccc2ncnc(Nc3ccc(Oc4ccc5c(c4)ncn5C)c(C)c3)c2n1` : 7.37
